System: CD2F1 mice, L1210 leukemia ip, survival T/C
TEST_NAME: NCI In Vivo Anticancer Drug Screen. Data for tumor model L1210 Leukemia (intraperitoneal) in CD2F1 (CDF1) mice
EXPERIMENTAL_CONTEXT: endpoint: mean survival time; dose: 12.5 mg/kg/injection; schedule: Q01DX009 (ip); vehicle: saline with Tween-80; higher = longer survival
Inconclusive results and toxic doses are left out.
METRIC_NAME: T/C

Observe how each entry below is paired with its result.
- COMPOUND: "OC(CC(O)(C(F)(F)F)C(F)(F)F)CC(O)(C(F)(F)F)C(F)(F)F"
  MEASURED_TARGET: "CD2F1 mice, L1210 leukemia ip, survival T/C"
  METRIC_NAME: "T/C"
  READOUT_VALUE: "92 % of control"
- COMPOUND: "CCOC(=O)C1(c2ccccc2)C(=O)Oc2ccccc21 (stereo not given)"
  MEASURED_TARGET: "CD2F1 mice, L1210 leukemia ip, survival T/C"
  METRIC_NAME: "T/C"
  READOUT_VALUE: "98 % of control"
- COMPOUND: "NC(=S)N/N=C/c1cc(-c2cccc(N)c2)ccn1"
  MEASURED_TARGET: "CD2F1 mice, L1210 leukemia ip, survival T/C"
  METRIC_NAME: "T/C"
  READOUT_VALUE: "115 % of control"
- COMPOUND: "COc1cc(OC)c(NC(=O)Nc2ccc(NC(C)=O)cc2)cc1Cl"
  MEASURED_TARGET: "CD2F1 mice, L1210 leukemia ip, survival T/C"
  METRIC_NAME: "T/C"
  READOUT_VALUE: "103 % of control"

Prompt: Please state recorded T/C (tested on CD2F1 mice, L1210 leukemia ip, survival T/C) of `Cc1sc(C)c(CCl)c1CCl`
Completion: 104 % of control

Prompt: Please state recorded T/C (tested on CD2F1 mice, L1210 leukemia ip, survival T/C) of `CCCCN1C(=O)C(=O)N(c2cc(C)c(C)cc2C)C1=O`
Completion: 100 % of control

Prompt: Please state recorded T/C (tested on CD2F1 mice, L1210 leukemia ip, survival T/C) of `CCN(CC)CCC(=O)c1ccccc1`
Completion: 102 % of control

Prompt: Please state recorded T/C (tested on CD2F1 mice, L1210 leukemia ip, survival T/C) of `CC(=O)Nc1ccc(/C=N/NC(=O)CNC(=O)Nc2cccc([N+](=O)[O-])c2)cc1`
Completion: 87 % of control

Prompt: Please state recorded T/C (tested on CD2F1 mice, L1210 leukemia ip, survival T/C) of `O=C(O)C1=CC=C(c2ccccc2)C(=O)C1`
Completion: 100 % of control

Prompt: Please state recorded T/C (tested on CD2F1 mice, L1210 leukemia ip, survival T/C) of `[Cl][Sn]([c]1ccccc1)[c]1ccccc1`
Completion: 96 % of control

* * *

Tested on: CD2F1 mice, L1210 leukemia ip, survival T/C
TEST_NAME: NCI In Vivo Anticancer Drug Screen. Data for tumor model L1210 Leukemia (intraperitoneal) in CD2F1 (CDF1) mice
EXPERIMENTAL_CONTEXT: endpoint: mean survival time; dose: 100.0 mg/kg/injection; schedule: Q01DX001 (ip); vehicle: saline with Tween-80; higher = longer survival
Toxic doses and inconclusive results are not listed.
molecules and their reported T/C

- MOLECULE: "CCOC(=O)c1cnc(SC)nc1NCc1cccc(C)c1"
  MEASURED_TARGET: "CD2F1 mice, L1210 leukemia ip, survival T/C"
  READOUT_VALUE: "98 % of control"

Prompt: What T/C value was documented for this molecule, `CCOC(=O)Cc1cnc(SC)nc1Nc1ccc(C)cc1` ?
Completion: 97 % of control

Prompt: What T/C value was documented for this molecule, `Cc1c2ccccc2c(CN(C)CC(=O)NCC(=O)NCC(=O)O)c2ccccc12` ?
Completion: 103 % of control

Prompt: What T/C value was documented for this molecule, OC12CCCCC1(O)CCCC2 (stereo not drawn) ?
Completion: 100 % of control

Prompt: What T/C value was documented for this molecule, `[B-][N+](C)(C)Cc1ccccc1` ?
Completion: 101 % of control

Prompt: What T/C value was documented for this molecule, CC(C)(C(O)c1ccccc1)[N+](=O)[O-] (stereo not drawn) ?
Completion: 105 % of control

Prompt: What T/C value was documented for this molecule, `COc1cc(C(=O)O)cc(OC)c1OC` ?
Completion: 97 % of control

Prompt: What T/C value was documented for this molecule, Cc1ccc(S(=O)(=O)OCC(O)C(O)C(O)C(C)O)cc1 (stereo not drawn) ?
Completion: 98 % of control

Prompt: What T/C value was documented for this molecule, `O=C1/C(=C/c2ccccc2)CCSc2ccccc21` ?
Completion: 90 % of control

Prompt: What T/C value was documented for this molecule, `CCCC(C)(CCC)OC(=O)Nc1cccc2ccccc12` ?
Completion: 92 % of control

Prompt: What T/C value was documented for this molecule, `Cc1ccc(C)c(NC(=O)Oc2ccc(F)cc2)c1` ?
Completion: 96 % of control

Prompt: What T/C value was documented for this molecule, `Cc1cc(C)nc(NS(=O)(=O)c2ccc(NCN3C(=O)c4ccccc4C3=O)cc2)n1` ?
Completion: 101 % of control

Prompt: What T/C value was documented for this molecule, CC1CCCCN1 (stereo not drawn) ?
Completion: 95 % of control
